Measured log10 IC50 of individual entries
- measurementNotes: Inhibition of binding of [3H]nicotine to neural nicotinic cholinergic receptor in rat brain membranes at 10e-5 M of compound concentration
- Type: cell membranes
Use the decimal logarithm of IC50 (nM).

Quick one: log10 IC50 for CN1CCC=C(c2ccc(Cl)nc2)C1.O=C(O)/C=C\C(=O)O ?
0.34

Quick one: log10 IC50 for CN1CC=C(c2ccc(Cl)nc2)CC1.Cl ?
1.10

Quick one: log10 IC50 for Clc1ccc(C2=CC3CCC(C2)N3)cn1.O=C(O)/C=C\C(=O)O (configuration not stated) ?
0.23

Quick one: log10 IC50 for C[n+]1cccc(-c2ccc(Cl)nc2)c1.[I-] ?
1.89

Quick one: log10 IC50 for Cl.Clc1cccc(C2=CC3CCC(C2)N3)n1 (configuration not stated) ?
2.33

Quick one: log10 IC50 for CN1C2C=C(c3ccc(Cl)nc3)CC1CC2 (configuration not stated) ?
0.26

Quick one: log10 IC50 for CN1C2C=C(c3cccc(Cl)n3)CC1CC2.O=C(O)/C=C\C(=O)O (configuration not stated) ?
2.42
